Please go through the items and note down their protein stability index.
B1: NEK8 (parent)
chain: YTFGSNQHGQLGTNTRRGSRAPCK

Variants of: B1
assay procedure: protein stability index of a GFP-peptide fusion (GPS, HEK-293T) (PSI 1-6); higher = more stable;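 also: lentivirally expressed fusions sorted by FACS into six bins by GFP to DsRed ratio, PSI derived from sequencing read proportions per bin multiplied by bin number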
test conditions: c terminus: a fixed tail appended
Answers are plain numbers.

For orientation, consider the following solved cases.
sequence text	protein stability index
YTFGSNQHGQLGTNTRRGSRAPTK [C23T]	3.9
YTFLSNQHGQLGTNTRRGSRAPCK [G4L]	3.99
YCFGSNQHGQLGTNTRRGSRAPCK [T2C]	2.88
YTFGSNQHMQLGTNTRRGSRAPCK [G9M]	3.19
YTFGSNQHGQLKTNTRRGSRAPCK [G12K]	3.98
YTFGSNQHGQLGTNTRRGSRAPGK [C23G]	3.4
YTFGSNQHGHLGTNTRRGSRAPCK [Q10H]	3.89
YTFGSNQHGQLGTNTRRGSRAPCI [K24I]	3.08

Please go through the list and note protein stability index for each variant.
1. YTHGSNQHGQLGTNTRRGSRAPCK [F3H]
2. YTFGSNQHGQLGTNTRRGPRAPCK [S19P]

A.
1: 3.94; 2: 3.89
